assay: Intratumoral concentration of Compound A01 and erlotinib (Example 1); format: in vivo, CB17SCID male mice; settings: male, CB17SCID, mouse, tumor (HT-29 xenograft), oral, 50 mg/kg
metric: concentration at 24 day

Dear colleague, I am looking for the recorded concentration at 24 day of the following compound: C#Cc1cccc(Nc2ncnc3cc(OCCOC)c(OCCOC)cc23)c1 [Erlotinib, erlotinib, reference compound]
< 80000 ng/g

----------
experiment: Plasma concentration of Compound A01 and erlotinib (Example 1); format: in vivo, CB17SCID male mice; conditions: male, CB17SCID, mouse, plasma; 6 hours post dosing; A01 10 mg/kg oral
metric: concentration at 6 h (ng/mL)
Number in ng/mL, nothing else.

Would you mind telling me what concentration at 6 h value was observed for [2H]C([2H])([2H])c1cc(Br)cc2c1O[C@H](C(F)(F)F)C(C(=O)O)=C2 ?
19100

----------
assay: Plasma concentration of Compound A01 and erlotinib (Example 1); format: in vivo, CB17SCID male mice; conditions: male, CB17SCID, mouse, plasma, oral, 50 mg/kg
metric: concentration at 2 h (ng/mL)
Only the number, expressed in ng/mL, is required.

Requested read-out: concentration at 2 h. Entry: C#Cc1cccc(Nc2ncnc3cc(OCCOC)c(OCCOC)cc23)c1 [Erlotinib, erlotinib, reference compound]
3340

----------
experiment: Plasma concentration of Compound A01 and erlotinib (Example 1); assay type: in vivo, CB17SCID male mice; settings: male, CB17SCID, mouse, plasma; 6 hours post dosing; A01 1 mg/kg oral
metric: concentration at 6 h (ng/mL)
Respond numerically; units are ng/mL and should not be typed.

Look up concentration at 6 h for this compound: [2H]C([2H])([2H])c1cc(Br)cc2c1O[C@H](C(F)(F)F)C(C(=O)O)=C2
2250

----------
assay: Plasma concentration of Compound A01 and erlotinib (Example 1); type: in vivo, CB17SCID male mice; conditions: male, CB17SCID, mouse, plasma; 2 hours post dosing; A01 10 mg/kg oral
metric: concentration at 2 h
Value and unit, in that order.

Need concentration at 2 h, item [2H]C([2H])([2H])c1cc(Br)cc2c1O[C@H](C(F)(F)F)C(C(=O)O)=C2
28400 ng/mL
